# System: HMLE_shECad viability, CellTiter-Glo luminescence, 72 h
# test-method-notes: HMLE_shECad viability reduction – cell-based, CellTiter-Glo luminescence, dry powder, set 7, dose response (AID 504788)
Inconclusive results are not listed.
Listed here: items and their measured AC50.

[
  {
    "compound": "Cc1csc(NC(=O)c2cccc(COc3cccc(F)c3)c2)n1",
    "AC50": "0.705 µM"
  },
  {
    "compound": "Cc1cccc(OCc2ccc(C(=O)Nc3nc(C)cs3)o2)n1",
    "AC50": "18.7 µM"
  },
  {
    "compound": "Cc1csc(NC(=O)c2cccc(COc3ccccc3F)c2)n1",
    "AC50": "1.93 µM"
  },
  {
    "compound": "Cc1csc(NC(=O)c2cccc(CNc3ncccc3F)c2)n1",
    "AC50": "22.9 µM"
  },
  {
    "compound": "CC(C)c1ccc(/C=C/C(=O)n2ccc(-c3ccc[nH]3)n2)cc1",
    "AC50": "15.6 µM"
  },
  {
    "compound": "O=C(COc1c(Cl)cc(Cl)cc1Cl)N/N=C/c1ccc[nH]1",
    "AC50": "1.7 µM"
  },
  {
    "compound": "COc1cc([C@@H]2c3cc4c(cc3[C@@H](OC3OC5COC(C)OC5C(O)C3O)[C@H]3COC(=O)[C@H]23)OCO4)cc(OC)c1O (stereo partly specified)",
    "AC50": "2.95 µM"
  },
  {
    "compound": "Cc1csc(NC(=O)COc2ccc(Cl)cc2Cl)n1",
    "AC50": "28.9 µM"
  },
  {
    "compound": "Cc1cccc(NCc2cccc(C(=O)Nc3nc(C)cs3)c2)n1",
    "AC50": "21.1 µM"
  },
  {
    "compound": "Cc1csc(NC(=O)c2ccc(COc3ncccc3F)o2)n1",
    "AC50": "22.7 µM"
  }
]

Field: next compound
*Q* Given the compound "Cc1csc(NC(=O)c2ccc(COc3cccc(OC(F)(F)F)c3)o2)n1" , what is its reported AC50?
*A* 0.895 µM
